# Measurement description: Transdermal potential: plasma pharmacokinetics via topical, intravenous and intradermal routes in rats
# Format: in vivo, SD rats
# Measurement setup: rat, 5 mg/kg; intravenous (iv), 5 mpk, male SD rats, phosphate salt form, plasma

# Smiles record, AUC(0-t) at 24 h
measured = [
    ("Oc1cccc(Nc2ccnc3cc(-c4cccc(CN5CCOCC5)c4)sc23)c1", "514 ng·h/mL"),
]

----------
# Measurement description: Comparison of L-menthol with other known transdermal permeation enhancers (AUC∞ of the thienopyridine compound)
# Type: in vivo
# Measurement setup: AUC∞ after transdermal administration, component replaced with water, mice, FIG. 3
Measured parameter: effect on transdermal permeability of the thienopyridine compound

# Compound, Meas value
rows = [
    ("NC(N)=O", "virtually no effect"),
    ("CC(O)CO (stereo not shown)", "virtually no effect"),
    ("OCC(O)CO", "virtually no effect"),
]

----------
# Measurement description: Transdermal potential: plasma pharmacokinetics via topical, intravenous and intradermal routes in rats
# Format: in vivo, SD rats
# Measurement setup: rat, topical or ocular, 5 mg/kg; topical application, 5 mpk, male SD rats, phosphate salt form, plasma

# Molecule, AUC(0-inf), ng·h/mL
rows = [
    ("Oc1cccc(Nc2ccnc3cc(-c4cccc(CN5CCOCC5)c4)sc23)c1 [thienopyridine compound]", 49.4),
]

----------
# Measurement description: Transdermal potential: plasma pharmacokinetics via topical, intravenous and intradermal routes in rats
# Format: in vivo, SD rats
# Measurement setup: rat, 5 mg/kg; intradermal injection, 5 mpk, male SD rats, phosphate salt form, plasma
Measured parameter: Cmax (ng/mL)

# Smiles record, Measured parameter, Units of measure, Meas value
rows = [
    ("Oc1cccc(Nc2ccnc3cc(-c4cccc(CN5CCOCC5)c4)sc23)c1", "Cmax", "ng/mL", 40.3),
]

----------
# Measurement description: Transdermal potential: plasma pharmacokinetics via topical, intravenous and intradermal routes in rats
# Assay type: in vivo, SD rats
# Measurement setup: rat, topical or ocular, 5 mg/kg; topical application, 5 mpk, male SD rats, phosphate salt form, plasma

# Molecule, Units of measure, Tmax
measured = [
    ("Oc1cccc(Nc2ccnc3cc(-c4cccc(CN5CCOCC5)c4)sc23)c1 [thienopyridine compound]", "h", 1.38),
]

----------
# Measurement description: Transdermal potential: plasma pharmacokinetics via topical, intravenous and intradermal routes in rats
# Type: in vivo, SD rats
# Measurement setup: rat, topical or ocular, 5 mg/kg; topical application, 5 mpk, male SD rats, phosphate salt form, plasma
Measured parameter: AUC(0-t) at 24 h (ng·h/mL)

# Compound, Meas value
data = [
    ("Oc1cccc(Nc2ccnc3cc(-c4cccc(CN5CCOCC5)c4)sc23)c1 [thienopyridine compound]", 41.7),
]

----------
# Measurement description: Transdermal potential: plasma pharmacokinetics via topical, intravenous and intradermal routes in rats
# Type: in vivo, SD rats
# Measurement setup: rat, 5 mg/kg; intradermal injection, 5 mpk, male SD rats, phosphate salt form, plasma
Measured parameter: half-life (h)

# Compound, Measured parameter, Meas value
records = [
    ("Oc1cccc(Nc2ccnc3cc(-c4cccc(CN5CCOCC5)c4)sc23)c1 [thienopyridine compound]", "half-life", 8.32),
]

----------
# Measurement description: Transdermal potential: plasma pharmacokinetics via topical, intravenous and intradermal routes in rats
# Assay type: in vivo, SD rats
# Measurement setup: rat, topical or ocular, 5 mg/kg; topical application, 5 mpk, male SD rats, phosphate salt form, plasma

# Compound, half-life [h]
records = [
    ("Oc1cccc(Nc2ccnc3cc(-c4cccc(CN5CCOCC5)c4)sc23)c1 [thienopyridine compound]", 5.46),
]
